Answer each item with its documented IC50.
# Target or system: Butyrylcholinesterase (Rattus norvegicus, UniProt Q9JKC1)
# Sequence (Q9JKC1 whole entry): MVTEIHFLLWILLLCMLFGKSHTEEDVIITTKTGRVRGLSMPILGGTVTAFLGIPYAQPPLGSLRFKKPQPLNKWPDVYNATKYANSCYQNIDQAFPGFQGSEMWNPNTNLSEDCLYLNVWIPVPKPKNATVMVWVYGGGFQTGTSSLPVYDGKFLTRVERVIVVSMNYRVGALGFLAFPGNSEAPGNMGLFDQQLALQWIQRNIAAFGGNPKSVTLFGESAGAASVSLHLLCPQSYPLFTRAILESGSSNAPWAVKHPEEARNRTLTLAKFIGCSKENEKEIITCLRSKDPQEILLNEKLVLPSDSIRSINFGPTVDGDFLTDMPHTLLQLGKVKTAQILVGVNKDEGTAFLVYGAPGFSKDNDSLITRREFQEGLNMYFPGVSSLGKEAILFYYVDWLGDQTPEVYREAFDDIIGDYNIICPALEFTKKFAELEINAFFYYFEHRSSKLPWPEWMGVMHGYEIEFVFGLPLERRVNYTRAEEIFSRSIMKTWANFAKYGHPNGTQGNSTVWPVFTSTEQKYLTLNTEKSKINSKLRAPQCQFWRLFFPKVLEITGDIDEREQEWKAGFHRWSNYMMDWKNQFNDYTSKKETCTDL
# Method notes: Inhibition of BuChE in rat serum
Number first, unit second.

CC1=C[C@H]2Cc3[nH]c(=O)ccc3[C@@]3(C1)[C@@H]2CCCN3C(=O)CN(C)CCCCCCCCN(C)CC(=O)N1CCC[C@@H]2[C@H]3C=C(C)C[C@]21c1ccc(=O)[nH]c1C3 = 65.4 µM
CC1=C[C@H]2Cc3[nH]c(=O)ccc3[C@@]3(C1)[C@@H]2CCCN3C(=O)CN(C)CCCCCCCCCCN(C)Cc1cccnc1 = 12.9 µM
CC1=C[C@H]2Cc3[nH]c(=O)ccc3[C@@]3(C1)[C@@H]2CCCN3C(=O)CCN(C)CCCCCCN(C)CCC(=O)N1CCC[C@@H]2[C@H]3C=C(C)C[C@]21c1ccc(=O)[nH]c1C3 = 67.9 µM
CC1=C[C@H]2Cc3[nH]c(=O)ccc3[C@@]3(C1)[C@@H]2CCCN3C(=O)CN(C)CCCN(C)CC(=O)N1CCC[C@@H]2[C@H]3C=C(C)C[C@]21c1ccc(=O)[nH]c1C3 = 60 µM

Shifting focus to the molecule that follows.
For record CC1=C[C@H]2Cc3[nH]c(=O)ccc3[C@@]3(C1)[C@@H]2CCCN3CCN1CCN(CN2CCC[C@@H]3[C@H]4C=C(C)C[C@]32c2ccc(=O)[nH]c2C4)CC1 the listed IC50 is 192 µM

====

# Species on record: Rattus norvegicus
# Method notes: Selectivity ratio of IC50 for rat BuChE to rat IC50 for AchE
Answer each item with its documented Ratio IC50.
Give bare numbers.

CC1=C[C@H]2Cc3[nH]c(=O)ccc3[C@]3(C1)NCCC[C@H]23 = 12
CC1=C[C@H]2Cc3[nH]c(=O)ccc3[C@@]3(C1)[C@@H]2CCCN3C(=O)CN(C)CCCCCCN(C)CC(=O)N1CCC[C@@H]2[C@H]3C=C(C)C[C@]21c1ccc(=O)[nH]c1C3 = 846
CC1=C[C@H]2Cc3[nH]c(=O)ccc3[C@@]3(C1)[C@@H]2CCCN3CCN1CCN(CN2CCC[C@@H]3[C@H]4C=C(C)C[C@]32c2ccc(=O)[nH]c2C4)CC1 = 472

Please look at the items below and tell me Ratio IC50 for each one, in order.
1. CC1=C[C@H]2Cc3[nH]c(=O)ccc3[C@@]3(C1)[C@@H]2CCCN3C(=O)CN1CCCN(CC(=O)N2CCC[C@@H]3[C@H]4C=C(C)C[C@]32c2ccc(=O)[nH]c2C4)CC1
2. CC1=C[C@H]2Cc3[nH]c(=O)ccc3[C@@]3(C1)[C@@H]2CCCN3C(=O)CCN(C)CCCCCCCCCCCCN(C)CCC(=O)N1CCC[C@@H]2[C@H]3C=C(C)C[C@]21c1ccc(=O)[nH]c1C3

[838, 3830]

====

# Target or system: Acetylcholinesterase (Rattus norvegicus)
# Sequence (P37136 whole entry): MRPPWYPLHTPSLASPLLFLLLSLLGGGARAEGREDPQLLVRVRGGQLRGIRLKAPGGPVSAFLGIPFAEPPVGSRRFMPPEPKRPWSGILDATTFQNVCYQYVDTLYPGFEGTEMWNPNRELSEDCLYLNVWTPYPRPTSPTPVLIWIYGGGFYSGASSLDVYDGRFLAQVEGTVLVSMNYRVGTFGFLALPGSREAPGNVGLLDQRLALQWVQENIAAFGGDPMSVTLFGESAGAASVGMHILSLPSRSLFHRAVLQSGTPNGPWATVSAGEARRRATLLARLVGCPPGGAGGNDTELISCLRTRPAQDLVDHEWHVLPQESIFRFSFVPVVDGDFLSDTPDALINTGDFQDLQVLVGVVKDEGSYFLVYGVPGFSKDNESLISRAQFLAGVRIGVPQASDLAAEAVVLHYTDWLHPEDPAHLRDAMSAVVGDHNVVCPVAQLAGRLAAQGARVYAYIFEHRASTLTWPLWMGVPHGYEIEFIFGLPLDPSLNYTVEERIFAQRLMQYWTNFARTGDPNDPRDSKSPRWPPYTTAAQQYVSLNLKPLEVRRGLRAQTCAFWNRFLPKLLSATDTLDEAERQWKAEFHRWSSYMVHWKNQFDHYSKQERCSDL
Cut-off 20 nM on IC50: below means label 1, at or above means label 0.

CC1=C[C@H]2Cc3[nH]c(=O)ccc3[C@@]3(C1)[C@@H]2CCCN3C(=O)CN(C)CCCCCCCCCCN(C)Cc1ccccn1 = label 0

Hi there! Is IC50 for CC1=C[C@H]2Cc3[nH]c(=O)ccc3[C@@]3(C1)[C@@H]2CCCN3CCCN1CCN(CCCN2CCC[C@@H]3[C@H]4C=C(C)C[C@]32c2ccc(=O)[nH]c2C4)CC1 below 20 nM, do you know? label 0

Hi there! Is IC50 for CC1=C[C@H]2Cc3[nH]c(=O)ccc3[C@@]3(C1)[C@@H]2CCCN3CCN(CCN1CCC[C@@H]2[C@H]3C=C(C)C[C@]21c1ccc(=O)[nH]c1C3)C1CC1 below 20 nM, do you know? label 0
